The reported numbers originate from patent US10968210B2.

- ASSAY_TARGET: human Nav 1.7 channels stably expressed in HEK 293 cells (Homo sapiens)
- Construct: expressed in transfected cells; host or cells: HEK 293
- Sequence (Q15858 whole entry): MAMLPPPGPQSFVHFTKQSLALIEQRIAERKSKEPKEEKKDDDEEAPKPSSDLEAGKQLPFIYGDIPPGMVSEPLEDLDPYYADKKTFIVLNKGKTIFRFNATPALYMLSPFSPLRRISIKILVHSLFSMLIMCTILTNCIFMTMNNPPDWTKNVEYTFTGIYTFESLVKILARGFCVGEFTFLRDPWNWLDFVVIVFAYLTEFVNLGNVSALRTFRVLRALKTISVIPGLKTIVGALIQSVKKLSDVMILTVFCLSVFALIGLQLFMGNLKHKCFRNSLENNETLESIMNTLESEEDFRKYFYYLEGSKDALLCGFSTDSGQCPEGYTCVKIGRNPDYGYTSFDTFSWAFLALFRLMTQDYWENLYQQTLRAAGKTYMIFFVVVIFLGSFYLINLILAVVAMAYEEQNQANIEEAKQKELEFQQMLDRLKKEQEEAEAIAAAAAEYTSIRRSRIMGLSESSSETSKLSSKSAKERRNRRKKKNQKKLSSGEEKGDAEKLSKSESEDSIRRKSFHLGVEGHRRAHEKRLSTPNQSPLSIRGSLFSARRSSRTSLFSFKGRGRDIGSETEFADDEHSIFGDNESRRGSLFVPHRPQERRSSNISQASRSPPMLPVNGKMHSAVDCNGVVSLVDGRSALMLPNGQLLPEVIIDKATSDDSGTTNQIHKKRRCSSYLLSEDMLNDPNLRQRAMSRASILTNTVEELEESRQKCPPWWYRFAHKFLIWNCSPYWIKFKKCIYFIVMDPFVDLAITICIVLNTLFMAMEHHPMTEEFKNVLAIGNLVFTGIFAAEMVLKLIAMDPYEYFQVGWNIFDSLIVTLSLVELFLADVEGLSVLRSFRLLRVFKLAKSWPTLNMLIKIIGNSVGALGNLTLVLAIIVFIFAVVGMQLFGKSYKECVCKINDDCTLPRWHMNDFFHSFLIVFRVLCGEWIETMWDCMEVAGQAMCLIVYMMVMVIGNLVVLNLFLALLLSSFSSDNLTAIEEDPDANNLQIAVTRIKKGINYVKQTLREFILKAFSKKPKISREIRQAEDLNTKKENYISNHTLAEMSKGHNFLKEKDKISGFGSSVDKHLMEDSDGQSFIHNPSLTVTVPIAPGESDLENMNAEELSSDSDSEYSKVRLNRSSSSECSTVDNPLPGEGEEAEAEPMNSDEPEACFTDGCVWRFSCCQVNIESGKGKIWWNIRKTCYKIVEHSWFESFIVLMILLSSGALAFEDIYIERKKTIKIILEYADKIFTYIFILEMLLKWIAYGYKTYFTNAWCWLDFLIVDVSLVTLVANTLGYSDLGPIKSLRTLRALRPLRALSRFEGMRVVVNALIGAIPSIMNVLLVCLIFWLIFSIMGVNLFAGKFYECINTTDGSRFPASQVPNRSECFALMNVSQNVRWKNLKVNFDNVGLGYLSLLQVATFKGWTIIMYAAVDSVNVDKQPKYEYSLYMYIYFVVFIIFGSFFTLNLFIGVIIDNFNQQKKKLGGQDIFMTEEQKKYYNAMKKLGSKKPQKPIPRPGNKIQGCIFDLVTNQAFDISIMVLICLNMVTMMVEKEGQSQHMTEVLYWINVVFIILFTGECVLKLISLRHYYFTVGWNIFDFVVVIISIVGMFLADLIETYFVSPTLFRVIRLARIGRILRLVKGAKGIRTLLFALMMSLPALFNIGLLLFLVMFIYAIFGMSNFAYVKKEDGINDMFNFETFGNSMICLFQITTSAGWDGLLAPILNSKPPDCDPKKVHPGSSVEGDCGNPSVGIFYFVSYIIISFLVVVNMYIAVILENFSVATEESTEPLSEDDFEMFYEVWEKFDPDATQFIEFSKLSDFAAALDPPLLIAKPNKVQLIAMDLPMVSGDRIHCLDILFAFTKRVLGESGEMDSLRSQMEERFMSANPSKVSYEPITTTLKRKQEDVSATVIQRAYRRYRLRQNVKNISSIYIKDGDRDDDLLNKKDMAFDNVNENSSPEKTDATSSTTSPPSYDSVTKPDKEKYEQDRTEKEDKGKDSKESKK
- ASSAY_INFO: IonWorks Quattro automated patch-clamp, inactivated state block of Nav 1.7
- Format: cell-based
- RUN_PARAMETERS: double-pulse protocol, HEK 293 cells held at -100 mV, read-out: potency for the Nav 1.7 sodium ion channel (IC50, IonWorks)
- Protocol: IonWorks® Experimental Procedure Compounds were tested on human Nav 1.7 and Nav 1.5 channels stably expressed in HEK 293 cells. […] For all electrophysiology experiments, offline analysis was used to determine percent inhibition as a function of drug concentration. IC50 values were determined by fitting to the Hill equation. […]
Output: class label from IC50. Mapping: L: < 0.03 µM; M: ≥ 0.03 µM and < 0.04 µM; H: ≥ 0.04 µM

{"COMPOUND": "NCC1CCN1CCCCNc1cc(F)c(S(=O)(=O)Nc2nccs2)cc1Cl (single isomer, unassigned) [Ex 16-52]", "ANSWER_LABEL": "M"}

# input Which of the defined bands does the recorded IC50 of O=S(=O)(Nc1nccs1)c1cc(Cl)c(NCCCCN2CCCNCC2)cc1F [Ex 1-53] sit within?
# output H

# input Given NC[C@H]1CCN1CCCCNc1cc(F)c(S(=O)(=O)Nc2ncns2)cc1Cl [Ex 16-02] , name the class its IC50 places it in.
# output L

# input Returns: class label. Input: O=S(=O)(Nc1nccs1)c1cc(Cl)c(NCCCCN2CCC3CCC(C2)N3)cc1F (stereo not drawn) [Ex 1-52]
# output H

# input Hey, which category is N#Cc1cc(S(=O)(=O)Nc2nccs2)c(F)cc1NCCCCN[C@@H]1CCNC1 [Ex 16-39] in, do you know?
# output M

# input Field: class (IC50) — entry: N[C@@H]1CCN(CCCCNc2cc(F)c(S(=O)(=O)Nc3nccs3)cc2Cl)C1 [Ex 1-36]
# output L

# input // bin(item) where item = O=S(=O)(Nc1nccs1)c1cc(Cl)c(NCCCCCNCC2CCCNC2)cc1F (stereo not drawn) [Ex 9-04]
# output L

# input # bin lookup: classify N#Cc1cc(S(=O)(=O)Nc2ncc(F)s2)c(F)cc1NCCCCN[C@@H]1CCNC1 [Ex 16-40] by its IC50
# output L

# input Which of the defined bands does the recorded IC50 of CNCCNCCCCNc1cc(F)c(S(=O)(=O)Nc2nc(C)cs2)cc1Cl [Ex 16-51] sit within?
# output M

---

- ASSAY_TARGET: human Nav 1.7 channels stably expressed in HEK 293 cells (Homo sapiens)
- ASSAY_INFO: IonWorks Quattro automated patch-clamp, inactivated state block of Nav 1.7
- RUN_PARAMETERS: double-pulse protocol, HEK 293 cells held at -100 mV, read-out: potency for the Nav 1.7 sodium ion channel (IC50, IonWorks)
- Method: IonWorks® Experimental Procedure Compounds were tested on human Nav 1.7 and Nav 1.5 channels stably expressed in HEK 293 cells. […] For all electrophysiology experiments, offline analysis was used to determine percent inhibition as a function of drug concentration. IC50 values were determined by fitting to the Hill equation. […]
The entries below are paired with their reported IC50.
Quick reminder: number only, in nM, skip the unit.

# input Name the reported IC50 value associated with the compound NCC1CCN(CCCCNc2cc(F)c(S(=O)(=O)Nc3nccs3)cc2Cl)C1 (stereo not shown) [Ex 1-47]
# output 22

# input Sample O=S(=O)(Nc1ncc(F)s1)c1cc(Br)c(NCCCCN2C[C@H]3CCCN[C@H]3C2)cc1F [Ex 16-44] — what was its IC50?
# output 12

# input What value of IC50 has been recorded for this entry: O=S(=O)(Nc1nccs1)c1cc(Cl)c(NCC2CCCC(NCC3CCCN3)C2)cc1F (single isomer, unassigned) [Ex 6-7 Enantiomer B]
# output 35
